System: 292921-168-R-J2-PDC spheroids with HUVEC/MSC, viability
Test: Anticancer human tumor 292921-168-R-J2-PDC patient-derived pancreatic carcinoma cell line growth inhibition [TAK]
Settings: curve of compound
pIC50: −log10 of the molar value.
QUANTITY_NAME: pIC50

COMPOUND	RESULT
COC1CC2CCC(C)C(O)(O2)C(=O)C(=O)N2CCCCC2C(=O)OC(C(C)CC2CCC(OCCO)C(OC)C2)CC(=O)C(C)C=C(C)C(O)C(OC)C(=O)C(C)CC(C)C=CC=CC=C1C (stereo not drawn)	< 7.00
CCCS(=O)(=O)Nc1ccc(F)c(C(=O)c2c[nH]c3ncc(-c4ccc(Cl)cc4)cc23)c1F	< 4.00

Now turn to the next compound.
Exercise: Field request: pIC50 | item: `CC(C)(C)c1nc(-c2cccc(NS(=O)(=O)c3c(F)cccc3F)c2F)c(-c2ccnc(N)n2)s1`
Key: 5.30

----------
System: 292921-168-R-J2-PDC spheroids with HUVEC/MSC, viability
Assay: Anticancer human tumor 292921-168-R-J2-PDC cell line growth inhibition [TAK];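 further: spheroids exposed to drugs for seven days before readout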
Conditions: second compound 0.3 µM; first compound 0.001 µM; stronger effect = lower value
QUANTITY_NAME: viability, T/C

See these solved cases before continuing.
COMPOUND	viability, T/C
CC(C)n1nc(-c2ccc3oc(N)nc3c2)c2c(N)ncnc21 + CC(C)NCC(C(=O)N1CCN(c2ncnc3c2C(C)CC3O)CC1)c1ccc(Cl)cc1	77.2%
CC(C)CC(NC(=O)CNC(=O)c1cc(Cl)ccc1Cl)B1OC(=O)CC(CC(=O)O)(C(=O)O)O1 (centres undefined) + CC(C)NCC(C(=O)N1CCN(c2ncnc3c2C(C)CC3O)CC1)c1ccc(Cl)cc1	86.2%
COC1CC2CCC(C)C(O)(O2)C(=O)C(=O)N2CCCCC2C(=O)OC(C(C)CC2CCC(OCCO)C(OC)C2)CC(=O)C(C)C=C(C)C(O)C(OC)C(=O)C(C)CC(C)C=CC=CC=C1C (centres undefined) + CC(C)NCC(C(=O)N1CCN(c2ncnc3c2C(C)CC3O)CC1)c1ccc(Cl)cc1	56.9%

Exercise: Hello, I am looking for reported viability, T/C with 292921-168-R-J2-PDC spheroids with HUVEC/MSC, viability for CC(C)CC(NC(=O)C(Cc1ccccc1)NC(=O)c1cnccn1)B(O)O (centres undefined) + CC(C)NCC(C(=O)N1CCN(c2ncnc3c2C(C)CC3O)CC1)c1ccc(Cl)cc1 . Could you help?
Key: 89.3%
